# Tested on: Cabbage Looper [Trichoplusia ni (Hubner)]
# assayComment: Cabbage looper insecticidal test
# Type: in vivo
# assaySetup: second-instar larvae, percent in solution; 3-5 days

molecule | assayedSystem | limitSign | LC50, CL / %
CC(C)C(=Nc1cccc(C(F)(F)F)c1)OCC#CCOc1ccccc1 [Compound 548] | Cabbage Looper [Trichoplusia ni (Hubner)] | < | 0.1
C=CCOc1cccc(COC(=Nc2ccc(F)c(Cl)c2)C(C)C)c1 [Compound 479] | Cabbage Looper [Trichoplusia ni (Hubner)] | = | 0.013
COCc1c(F)c(F)c(COC(=Nc2ccc(C(C)(C)C)cc2)C(C)C)c(F)c1F [Compound 544] | Cabbage Looper [Trichoplusia ni (Hubner)] | > | 0.1
CC(C)C(=Nc1ccc(F)c(Cl)c1)OCc1ccnc(Oc2ccc(F)cc2)c1 [Compound 511] | Cabbage Looper [Trichoplusia ni (Hubner)] | = | 0.0012
CC(C)C(=Nc1ccc(Cl)c(Cl)c1)OCc1cccc(Oc2cccc(Cl)c2)c1 [Compound 207] | Cabbage Looper [Trichoplusia ni (Hubner)] | = | 0.008
CC(C)C(=Nc1cccc(C(F)(F)F)c1)OC(C)c1cccc(Oc2ccccc2)c1 (stereo not drawn) [Compound 459] | Cabbage Looper [Trichoplusia ni (Hubner)] | = | 0.008

====

# Test system: Cabbage Looper [Trichoplusia ni (Hubner)]
# assayComment: Cabbage looper insecticidal test
# Assay type: in vivo
# assaySetup: second-instar larvae, percent in solution; 3-5 days

molecule | assayedSystem | displayUnit | limitSign | LC50, CL
CC(C)(C)c1ccc(N=C(OCc2cccc(Oc3ccccc3)c2)C(Cl)Cl)cc1 | Cabbage Looper [Trichoplusia ni (Hubner)] | % | < | 0.1
CC(C)C(=Nc1ccc(Cl)cc1)OCc1cccc(Oc2ccccc2)n1 | Cabbage Looper [Trichoplusia ni (Hubner)] | % | < | 0.1
CC(C)C(=Nc1ccc(F)c(Cl)c1)OCc1cccc(Oc2ccccc2)c1 | Cabbage Looper [Trichoplusia ni (Hubner)] | % | = | 0.0006
C=C(C)C(=Nc1ccc(C(F)(F)F)cc1)OCc1ccc(F)c(Oc2ccc(Cl)cc2)c1 | Cabbage Looper [Trichoplusia ni (Hubner)] | % | = | 0.0012
CC(C)C(=Nc1ccc(Br)cc1F)OCc1cccc(Oc2ccccc2)c1 | Cabbage Looper [Trichoplusia ni (Hubner)] | % | = | 0.003
CC(=O)c1ccc(N=C(OCc2cccc(Oc3ccccc3)c2)C(C)C)cc1 | Cabbage Looper [Trichoplusia ni (Hubner)] | % | = | 0.01
CC(C)C(=Nc1ccc(F)c(Cl)c1)OCC#CCOc1ccccc1 | Cabbage Looper [Trichoplusia ni (Hubner)] | % | < | 0.1
CC(C)C(=Nc1ccc(C#N)cc1)OCc1cccc(Oc2cccc(Cl)c2)c1 | Cabbage Looper [Trichoplusia ni (Hubner)] | % | = | 0.0035
CCS(=O)(=O)c1ccc(N=C(OCc2cccc(Oc3ccccc3)c2)C(C)C)cc1Cl | Cabbage Looper [Trichoplusia ni (Hubner)] | % | = | 0.025
CC(C)C(=Nc1ccc(C(C)(C)C)cc1)OCc1cccc(Oc2ccc(F)cc2)c1 | Cabbage Looper [Trichoplusia ni (Hubner)] | % | = | 0.004
COc1ccc(N=C(OCc2ccc(F)c(Oc3ccc(Cl)cc3)c2)C(C)C)cc1Cl | Cabbage Looper [Trichoplusia ni (Hubner)] | % | > | 0.1
CC(C)C(=Nc1ccc(Br)cc1)OCc1cccc(Oc2ccc(F)cc2)c1 | Cabbage Looper [Trichoplusia ni (Hubner)] | % | = | 0.0005
CCC(=Nc1ccc(F)cc1F)OCc1cccc(Oc2ccccc2)c1 | Cabbage Looper [Trichoplusia ni (Hubner)] | % | = | 0.02
CC(C)C(=Nc1ccccc1Br)OCc1cccc(Oc2ccccc2)c1 | Cabbage Looper [Trichoplusia ni (Hubner)] | % | = | 0.025
CC(C)C(=Nc1ccc(C(F)(F)F)cc1)OCc1cccc(Oc2ccc(Cl)cc2)n1 | Cabbage Looper [Trichoplusia ni (Hubner)] | % | = | 0.00027
COC(C)C(=Nc1ccc(Cl)cc1)OCc1cccc(Oc2ccccc2)c1 (centres unmarked) | Cabbage Looper [Trichoplusia ni (Hubner)] | % | = | 0.004
CC(C)C(=Nc1ccc(Cl)cc1)OCc1cccc(Oc2ccc(Br)cc2)c1 | Cabbage Looper [Trichoplusia ni (Hubner)] | % | = | 0.0006
CC(C)C(=Nc1ccc(OC(F)(F)F)cc1)OCc1ccc(F)c(Oc2ccc(F)cc2)c1 | Cabbage Looper [Trichoplusia ni (Hubner)] | % | = | 0.000024
CC(C)C(=Nc1ccc(F)c(Cl)c1)OCc1cccc(Oc2ccc(C(F)(F)F)cc2)c1 | Cabbage Looper [Trichoplusia ni (Hubner)] | % | = | 0.009
CC(C)C(=Nc1cccc(Br)c1)OCc1cccc(Oc2ccc(F)cc2)c1 | Cabbage Looper [Trichoplusia ni (Hubner)] | % | = | 0.0005
CC(C)C(=Nc1ccc(OC(F)(F)F)c(Cl)c1)OCc1cc(F)cc(Oc2ccc(F)cc2)c1 | Cabbage Looper [Trichoplusia ni (Hubner)] | % | = | 0.03
CC(C)C(=Nc1ccc2c(c1)OCO2)OCc1cccc(Oc2ccc(F)cc2)c1 | Cabbage Looper [Trichoplusia ni (Hubner)] | % | = | 0.0005
CSc1cccc(N=C(OCc2cccc(Oc3ccccc3)c2)C(C)C)c1 | Cabbage Looper [Trichoplusia ni (Hubner)] | % | = | 0.009
COc1ccc(N=C(OCc2ccc(F)c(Oc3ccc(F)cc3)c2)C(C)C)cc1OC | Cabbage Looper [Trichoplusia ni (Hubner)] | % | > | 0.1
CC(C)C(=Nc1cccc(Cl)c1)OCc1cccc(Oc2ccc(F)cc2)c1 | Cabbage Looper [Trichoplusia ni (Hubner)] | % | = | 0.0005
CC(C)C(=Nc1cc(Cl)cc(Cl)c1)OCc1cccc(Oc2ccccc2)c1 | Cabbage Looper [Trichoplusia ni (Hubner)] | % | = | 0.004

====

# Test system: Cabbage Looper [Trichoplusia ni (Hubner)]
# assayComment: Cabbage looper insecticidal test
# Format: in vivo
# assaySetup: second-instar larvae, percent in solution; 3-5 days
Recorded LC50, CL by entry

molecule | assayedSystem | limitSign | LC50, CL (%)
Cc1ccc(N=C(OCc2ccc(F)c(Oc3ccccc3)c2)C(C)C)cc1F [Compound 354] | Cabbage Looper [Trichoplusia ni (Hubner)] | > | 0.1
Cc1ccc(N=C(OCc2ccc(F)c(Oc3ccccc3)c2)C(C)C)cc1Cl [Compound 356] | Cabbage Looper [Trichoplusia ni (Hubner)] | > | 0.1
CC(C)C(=Nc1ccc(OC(F)(F)F)cc1)OCc1cccc(Oc2ccccc2)c1 [Compound 70] | Cabbage Looper [Trichoplusia ni (Hubner)] | < | 0.1
CC(C)C(=Nc1ccc(F)c(Br)c1)OCc1ccc(F)c(Oc2ccc(Cl)cc2)c1 [Compound 379] | Cabbage Looper [Trichoplusia ni (Hubner)] | = | 0.00075
CC(C)C(=Nc1c(Cl)cc(Cl)cc1Cl)OCc1cccc(Oc2ccccc2)c1 [Compound 19] | Cabbage Looper [Trichoplusia ni (Hubner)] | < | 0.1
CC(C)C(=Nc1cccc(OC(F)(F)F)c1)OCc1ccc(F)c(Oc2ccccc2)c1 [Compound 437] | Cabbage Looper [Trichoplusia ni (Hubner)] | = | 0.00075
CC(C)C(=Nc1ccc(Cl)cc1)OCc1cccc(Oc2ccc(F)cc2)c1 [Compound 189] | Cabbage Looper [Trichoplusia ni (Hubner)] | = | 0.00027
CC(C)C(=Nc1ccc(Br)c(Cl)c1)OCc1cccc(Oc2ccc(Cl)cc2)c1 [Compound 380] | Cabbage Looper [Trichoplusia ni (Hubner)] | > | 0.1
CC(C)C(=Nc1ccc(F)c(Cl)c1F)OCc1cccc(Oc2ccc(Cl)cc2)n1 [Compound 500] | Cabbage Looper [Trichoplusia ni (Hubner)] | = | 0.00009
CC(C)C(=Nc1cccc(Cl)c1)OCc1cccc(Oc2ccc(Br)cc2)c1 [Compound 260] | Cabbage Looper [Trichoplusia ni (Hubner)] | = | 0.00075

====

Recorded LC50, CL by entry
# Tested on: Cabbage Looper [Trichoplusia ni (Hubner)]
# assayComment: Cabbage looper insecticidal test
# Format: in vivo
# assaySetup: second-instar larvae, percent in solution; 3-5 days
reportedMetric: LC50, CL (%)

cpdSmiles | assayedSystem | reportedMetric | numericValue
CC(C)C(=Nc1ccc(F)c(F)c1F)OCc1cccc(Oc2ccc(F)cc2)c1 | Cabbage Looper [Trichoplusia ni (Hubner)] | LC50, CL | 0.0002
CC(C)C(=Nc1ccc(Cl)c(Cl)c1)OCc1cccc(Oc2ccc(F)cc2F)c1 | Cabbage Looper [Trichoplusia ni (Hubner)] | LC50, CL | 0.00075
CC(C)C(=Nc1ccc2c(c1)OC(F)(F)O2)OCc1cccc(Oc2ccc(Cl)cc2)c1 | Cabbage Looper [Trichoplusia ni (Hubner)] | LC50, CL | 0.00016

====

# Tested on: Cabbage Looper [Trichoplusia ni (Hubner)]
# assayComment: Cabbage looper insecticidal test
# Type: in vivo
# assaySetup: second-instar larvae, percent in solution; 3-5 days
Recorded LC50, CL by entry

cpdSmiles | limitSign | LC50, CL, %
Cc1ccc(N=C(OCc2ccc(F)c(Oc3ccc(Cl)cc3)c2)C(C)C)cc1C | > | 0.1
CCOc1ccc(N=C(OCc2cccc(Oc3ccccc3)c2)C(Cl)Cl)cc1 | = | 0.005
CC(C)C(=Nc1ccc(C(C)(C)C)cc1)OCc1cccc(Oc2ccccc2)n1 | = | 0.006
CCC(=Nc1ccc(Cl)c(Cl)c1)OCc1cccc(Oc2ccccc2)c1 | = | 0.024
CC(C)C(=Nc1ccc(Cl)cc1Cl)OCc1cccc(Oc2ccccc2)c1 | = | 0.0017
Cc1cc(N=C(OCc2ccc(F)c(Oc3ccc(Cl)cc3)c2)C(C)C)ccc1Br | > | 0.1
CCOc1ccc(N=C(OCc2ccc(F)c(Oc3ccc(Cl)cc3)c2)C(C)C)cc1Cl | = | 0.0016
Fc1ccc(N=C(OCc2cccc(Oc3ccccc3)c2)C2CC2)cc1 | = | 0.03
COCc1c(F)c(F)c(COC(=Nc2cccc(C(F)(F)F)c2)C(C)C)c(F)c1F | = | 0.001
CC(C)(F)C(=Nc1ccc(F)c(Cl)c1)OCc1cc(Oc2ccc(F)cc2)ccc1F | = | 0.0015
CC(C)C(=Nc1ccc(OC(F)(F)F)cc1)OCc1ccc(F)c(Oc2ccccc2)c1 | = | 0.000065
CC(C)C(=Nc1ccc(F)c(I)c1)OCc1ccc(F)c(Oc2ccccc2)c1 | = | 0.0007
CCc1ccc(N=C(OCc2cccc(Oc3ccc(F)cc3)c2)C(C)C)cc1 | = | 0.001
CC(C)(C)C(=Nc1ccc(F)cc1)OCc1cccc(Oc2ccccc2)c1 | = | 0.03
CC(C)C(=Nc1ccc(F)c(I)c1)OCc1ccc(F)c(Oc2ccc(Cl)cc2)c1 | = | 0.00015
CC(C)C(=Nc1ccc(F)cc1F)OCc1cccc(Oc2ccc(F)cc2)c1 | = | 0.0007
CC(C)C(=Nc1ccc(C(F)(F)F)cc1)OCc1cccc(Oc2ccc(Cl)cc2)c1 | = | 0.00025
CC(C)C(=Nc1c(Cl)cc([N+](=O)[O-])cc1Cl)OCc1cccc(Oc2ccccc2)c1 | = | 0.015
Cc1cc(N=C(OCc2cccc(Oc3ccccc3)c2)C(C)C)ccc1F | = | 0.004
Clc1ccc(N=C(OCc2cccc(Oc3ccccc3)c2)C(Cl)Cl)cc1 | = | 0.002
CC(C)C(=Nc1ccc(F)c(Cl)c1)OCc1cccc(Oc2cccc(F)c2)c1 | = | 0.0007
